# assay: Stat Signaling Pathway (AID 446);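 note: ME-180 cervical cancer cells given 40 pM IL-6 alongside compound; SIE-controlled beta-lactamase reporter measured as 460/530 nm FRET emission ratio; % is set by controls: 0 for no effect and ±100 for the full control effect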
# conditionSet: ME-180 (cervical carcinoma) SIE beta-lactamase reporter, IL-6 stimulated, 5 h; at 7.69 µM (top of the series) unless noted
Results filed as inconclusive are left out. Calls of active or inactive are those of the source. Calls come from the whole dose curve; as a rule, active = well fitted curve in either direction with a large enough effect (not every such curve was filed as active); inconclusive = small, poorly fitted or top-dose-only effect, or another doubt; inactive = flat fitted curve, though single readings scatter.

| smilesStructure | activity, negative = inhibition |
| --- | --- |
| COc1cccc(-c2cncnc2NCc2ccccc2)c1 | -9.01% (inactive) |
| COc1ccc(Oc2ncc3nc(-c4cccs4)c(=O)n(CCC#N)c3n2)cc1 | -11.5% (inactive) |
| CNc1ncnc2ccc(-c3ccccc3C)cc12 | -3.66% (inactive) |
| COc1ccc(-n2c(=O)c(C)nc3cnc(OC)nc32)cc1 | -15.2% (inactive) |
| COc1ccc(C(=O)N2CCC3(CC2)CN(Cc2ccc(C#N)cc2)C3)cc1 | 8.44% (inactive) |
| COc1ccccc1CN1CCC2(CC1)CCN(C(C)=O)CC2 | 0.91% (inactive) |
| CN1CCN(c2ccnc(-c3ccoc3)n2)CC1 | 11.2% (inactive) |
| CN(C)c1ncc2nc(-c3ccccc3)c(=O)n(Cc3ccc(F)cc3)c2n1 | 178% [activator] (active) |
| COc1ccc2[nH]cc(CCNc3ncnc4ccc(-c5cccnc5)cc34)c2c1 | -10.2% (inactive) |

====

# assay: qHTS Assay for Lipid Storage Modulators (AID 1519)
# conditionSet: Drosophila S3 cells, BODIPY lipid droplet/cell ratio, laser cytometry; measured here: lipid channel max response; cells loaded with oleic acid
Results filed as inconclusive are left out.
# class assignment by measured max response: lower = under 10%, middle = from 10% up to 20%, upper = 20% and over

| compound | assignedLabel |
| --- | --- |
| COc1ccccc1CN1CC[C@@]2(CCCN(C(C)=O)C2)C1 | lower |
| O=C(c1csnn1)N1CCC[C@@]2(CCN(Cc3nccs3)C2)C1 | upper |
| Cc1nc2cnc(N3CCOCC3)nc2n(C[C@H]2CCCO2)c1=O | middle |
| COc1cccc(Cn2c(=O)c(-c3cc(F)cc(F)c3)nc3cnc(N(C)C)nc32)c1 | middle |
| O=C(Nc1cccc(F)c1)N1CC[C@@]2(CCCNC2)C1 | lower |
| COc1cccc(-c2cc(N(C)Cc3ccco3)ncn2)c1 | upper |
| CN=C(N)NCCCC(N)C(=O)O (stereo not given) | lower |
| O=C(Nc1cccc(F)c1)N1CCCC2(CCN(C(=O)c3ccncc3)CC2)C1 | upper |
| O=C(c1cc(C(F)(F)F)cc(C(F)(F)F)c1)N1CCC2(CCN(Cc3nccs3)CC2)CC1 | upper |
| CS(=O)(=O)Nc1cccc(-c2cncnc2NCc2cccs2)c1 | middle |
| Cc1ccccc1-c1cncnc1NCc1cccs1 | middle |
| N#Cc1cccc(-c2nc(N3CCNCC3)c3ccccc3n2)c1 | middle |
| N#Cc1cccc(-c2nc3cnc(N4CCOCC4)nc3n(C[C@H]3CCCO3)c2=O)c1 | middle |
| CNc1nc(-c2ccccc2Cl)nc2ccccc12 | lower |
| COc1cccc(-c2cncnc2NCc2ccccc2)c1 | middle |

====

activity change, negative = inhibition values for the molecules below.
# assay: NFAT Signaling Pathway (AID 444);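 note: carbachol stimulus at about its EC50 of 1 µM final; % is set by controls: 0 for no effect and ±100 for the full control effect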
# conditionSet: Jurkat NFAT-bla M1, carbachol, beta-lactamase ratio, 5 h; at 7.69 µM (top of the series) unless noted
Results filed as inconclusive are left out.

| smilesStructure | unitInfo | activity change, negative = inhibition |
| --- | --- | --- |
| c1csc(CNc2cc(-c3ccoc3)ncn2)c1 | % | -2.52 |
| CN1CCN(c2ccnc(-c3ccoc3)n2)CC1 | % | -15.5 |
| COCC(=O)N1CCC2(CC1)CCN(C(=O)Nc1cccc(C#N)c1)CC2 | % | -11.9 |
| COc1ncc2nc(-c3cc(F)cc(F)c3)c(=O)n(C)c2n1 | % | -1.78 |
| CC(=O)NCCNc1ncnc2ccc(-c3cccc(NS(C)(=O)=O)c3)cc12 | % | 7.81 |
| COCCNc1ncnc2ccc(-c3ccc(C(=O)N(C)C)cc3)cc12 | % | 11.8 |
| COc1ccc(-c2nc3cnc(Oc4ccccc4)nc3n(CCC#N)c2=O)cc1 | % | -15.1 |
| COC(=O)N1CCC2(CCN(C(=O)Nc3ccccc3)CC2)CC1 | % | 4.8 |
| O=c1c(-c2cccs2)nc2cncnc2n1Cc1ccccc1 | % | 1.15 |
| CC(=O)N1CCC2(CCCN(c3ccccc3)C2)CC1 | % | 9.86 |
| O=c1c(-c2cc(F)cc(F)c2)nc2cnc(N3CCOCC3)nc2n1Cc1cccs1 | % | 22.7 |
| Cc1nc2cnc(Nc3ccccc3)nc2n(CCC#N)c1=O | % | -3.1 |
| COCCn1c(=O)c(-c2cccc(C#N)c2)nc2cnc(OC)nc21 | % | 4.96 |
| Cc1ccccc1-c1ccc2ncnc(NC3CC3)c2c1 | % | 3.53 |
| N#CCCn1c(=O)c(CCc2ccccc2)nc2cnc(Oc3cccc(Cl)c3)nc21 | % | -8.5 |

====

# testedOn: Cytochrome P450 3A4 (Homo sapiens)
# assay: qHTS Assay for Activators of Cytochrome P450 3A4 (AID 885); note: nearly all actives have a fitted effect of over 65% in size
# conditionSet: recombinant CYP3A4, Luciferin-PPXE luminescence, 60 min; series mostly up to 57.1 µM
Activity calls are given as the source filed them. Calls come from the whole dose curve; as a rule, active = well fitted activation curve with a large enough effect; inconclusive = small, poorly fitted or top-dose-only effect; inactive = no such curve, though single readings can be large or run the other way.
Possible outcomes: TRUE for active, FALSE for inactive

| compound | testedOn | assignedLabel |
| --- | --- | --- |
| COc1cccc(Cn2c(=O)c(-c3ccccc3)nc3cnc(N4CCNCC4)nc32)c1 | Cytochrome P450 3A4 (Homo sapiens) | FALSE |
| O=C(c1cnccn1)N1CCC[C@@]2(CCN(c3ccccc3)C2)C1 | Cytochrome P450 3A4 (Homo sapiens) | FALSE |
| O=C(c1csnn1)N1CCC[C@@]2(CCN(c3ccccn3)C2)C1 | Cytochrome P450 3A4 (Homo sapiens) | FALSE |
| O=C(Nc1ccccc1)N1CCCC2(CCN(C(=O)c3cc(C(F)(F)F)cc(C(F)(F)F)c3)CC2)C1 | Cytochrome P450 3A4 (Homo sapiens) | FALSE |
| COc1ccc(Oc2ncc3nc(-c4ccc(OC)cc4)c(=O)n(C)c3n2)cc1 | Cytochrome P450 3A4 (Homo sapiens) | FALSE |
| COc1cccc(-c2ccc3ncnc(NCc4cccs4)c3c2)c1 | Cytochrome P450 3A4 (Homo sapiens) | FALSE |
| COc1ccc(NC(=O)N2CCCC3(CCN(C(=O)c4csnn4)CC3)C2)cc1 | Cytochrome P450 3A4 (Homo sapiens) | FALSE |
| COc1cccc(-c2cncnc2NCc2ccccc2)c1 | Cytochrome P450 3A4 (Homo sapiens) | FALSE |
| Cc1ccccc1-c1nc(N2CCNCC2)c2ccccc2n1 | Cytochrome P450 3A4 (Homo sapiens) | FALSE |
| CNc1nc(-c2ccccc2CN(C)C)nc2ccccc12 | Cytochrome P450 3A4 (Homo sapiens) | FALSE |
| Cc1nc(NCc2ccccc2)c2nc(-c3ccccc3)n(C(C)CN(C)C)c2n1 (centres undefined) | Cytochrome P450 3A4 (Homo sapiens) | FALSE |
| O=C(Nc1cccc(F)c1)N1CCCC2(CCN(C(=O)c3ccncc3)CC2)C1 | Cytochrome P450 3A4 (Homo sapiens) | FALSE |
| CN(Cc1ccco1)c1ncnc2ccc(-c3ccccc3Cl)cc12 | Cytochrome P450 3A4 (Homo sapiens) | FALSE |
| CN1CCN(c2ncnc3ccc(-c4ccc(C(=O)N(C)C)cc4)cc23)CC1 | Cytochrome P450 3A4 (Homo sapiens) | FALSE |
| Cc1nc2cnc(Oc3cccc(Cl)c3)nc2n(CCC#N)c1=O | Cytochrome P450 3A4 (Homo sapiens) | FALSE |
| CCNc1ncc2nc(-c3cn(C)c4ccccc34)c(=O)n(C)c2n1 | Cytochrome P450 3A4 (Homo sapiens) | FALSE |
| O=S(=O)(c1ccccc1)N1CCC2(CCN(C(c3ccccc3)c3ccccc3)CC2)CC1 | Cytochrome P450 3A4 (Homo sapiens) | TRUE |
| FC(F)(F)c1ccccc1-c1nc(NCCN2CCOCC2)c2ccccc2n1 | Cytochrome P450 3A4 (Homo sapiens) | FALSE |
| CCCn1c(-c2ccc(F)cc2)nc2c(NC3CCN(Cc4ccccc4)C3)nc(C)nc21 (centres undefined) | Cytochrome P450 3A4 (Homo sapiens) | FALSE |
| Cn1c(=O)c(-c2cccs2)nc2cncnc21 | Cytochrome P450 3A4 (Homo sapiens) | FALSE |
| O=c1cnc2cnc(Nc3ccccc3)nc2n1C1CC1 | Cytochrome P450 3A4 (Homo sapiens) | FALSE |
| Cc1noc(C)c1C(=O)N1CCC[C@@]2(CCN(c3ccccc3)C2)C1 | Cytochrome P450 3A4 (Homo sapiens) | FALSE |
| Cc1ccccc1-c1cc(N(C)C)ncn1 | Cytochrome P450 3A4 (Homo sapiens) | TRUE |
| O=c1c(-c2cccs2)nc2cncnc2n1Cc1ccccc1 | Cytochrome P450 3A4 (Homo sapiens) | FALSE |
| COCCNc1nc(C)nc2c1nc(-c1ccccc1)n2CCN1CCCC1 | Cytochrome P450 3A4 (Homo sapiens) | FALSE |
| COCCn1c(=O)c(CCc2ccccc2)nc2cnc(OC)nc21 | Cytochrome P450 3A4 (Homo sapiens) | FALSE |
| COC(=O)N1CCC2(CC1)CN(C(c1ccccc1)c1ccccc1)C2 | Cytochrome P450 3A4 (Homo sapiens) | TRUE |
| O=C(Nc1ccccc1)N1CCC2(CC1)CCN(S(=O)(=O)c1ccccc1)CC2 | Cytochrome P450 3A4 (Homo sapiens) | FALSE |
| CN1CCN(c2nc(-c3cccc(C#N)c3)nc3ccccc23)CC1 | Cytochrome P450 3A4 (Homo sapiens) | FALSE |
